The measurements presented in this section are drawn from the CheMixHub drug solubility set.

assay: xn = mol fraction of the nth substance listed, in the solute-free solvent; details: 293.15 K; x2 = 0.3
// classify(record): look up solubility (g/100 g solution) in ranges bin 0 (below 1), bin 1 (1 to below 5), bin 2 (5 or more)

Would you please look over these solved cases?
molecule="CC(=O)OC(c1ccccc1)C(Cl)(Cl)Cl (stereo not given) + CC(C)O + O" discrete_label="bin 0"
molecule="CCCCOc1ccc(C(=O)CCN2CCCCC2)cc1.Cl + CO + C1CCOC1" discrete_label="bin 2"
molecule="O=C1CCc2ccc(OCCCCN3CCN(c4cccc(Cl)c4Cl)CC3)cc2N1 + CCC(C)=O + CCOC(C)=O" discrete_label="bin 1"
molecule="CCCCOc1ccc(C(=O)CCN2CCCCC2)cc1.Cl + CCO + CCCCCC" discrete_label="bin 2"
molecule="O=C(O)C1CSCN1 (stereo not given) + O + CC#N" discrete_label="bin 0"
molecule="CCCCOc1ccc(C(=O)CCN2CCCCC2)cc1.Cl + CCO + CCOC(C)=O" discrete_label="bin 2"
molecule="O=C1CCc2ccc(OCCCCN3CCN(c4cccc(Cl)c4Cl)CC3)cc2N1 + CCC(C)=O + CC(C)=O" discrete_label="bin 1"
molecule="COC1=CC(=O)CC(C)C12Oc1c(Cl)c(OC)cc(OC)c1C2=O (stereo not given) + CC(=O)CC(C)C + CC(C)O" discrete_label="bin 0"

Q: Classify this molecule: O=C1CCc2ccc(OCCCCN3CCN(c4cccc(Cl)c4Cl)CC3)cc2N1 + CCC(C)=O + CCCO
A: bin 1
